System: HCC-2998 colon
assay.info: NCI-60 one-dose screen, 48 h (100 = growth as untreated, 0 = no growth, -100 = all killed)
protocol.conditions: 10 µM unless noted
This is part of a sample that, as a whole, favours compounds with a hit. Of some 83,000 tested, about 20% had one in any assay.
measured.quantity: growth (%)
Express your answer in %, writing the number without its unit.

# count of solved cases: 2
Given `c1cnc2[nH]cc(-c3csc(-c4cn(CCCCN5CCOCC5)c5ccccc45)n3)c2c1` , state its recorded growth. 56.9

Same for `COC(=O)[C@@H](C)C[C@H](Cc1ccc2ccccc2c1)NC(=O)c1csc([C@@H](C[C@H](C(C)C)N(C)C(=O)[C@@H](NC(=O)[C@H]2CCCCN2C)C(C)C)OC(C)=O)n1` 52.8

---
Look up growth: `CC(=O)O[C@H](C[C@H](C(C)C)N(C)C(=O)[C@@H](NC(=O)[C@H]1CCCCN1C)C(C)(C)C)c1nc(C(=O)N[C@@H](Cc2ccccc2)C[C@H](C)C(=O)O)cs1` 8.37

Another molecule to look at: `COc1ccc(/C=C\c2cc(OC)c(OC)c(OC)c2)c(NS(=O)(=O)c2ccc(F)cc2)c1O` 14.9

What would you report for CCN(CC)c1ccc2c(c1)OC(N)=C(C#N)C2c1cc(OC)c2c(c1)OCO2 (centres undefined) ? -3.32

Could you do the same for `COP(=S)(N1CC1)N1CC1` , please? 105

Similarly, `Clc1cccc(Cl)c1Cl` ? 99.8

Similarly, `CCCOC(=O)N[C@H]1CCc2c(Br)c(OC)c(OC)c(OC)c2-c2ccc(SC)c(=O)cc21` ? 16.2

Another molecule to check: `CC(C)=CCC/C(C)=C/C=N\N=C(/N)N[N+](=O)[O-]` 108

Values from PubChem BioAssay (NCI)
